# Tgt: soluble guanylate cyclase (sGC) (Rattus norvegicus (Rat), UniProt P20595)
# Sequence (P20595 whole entry): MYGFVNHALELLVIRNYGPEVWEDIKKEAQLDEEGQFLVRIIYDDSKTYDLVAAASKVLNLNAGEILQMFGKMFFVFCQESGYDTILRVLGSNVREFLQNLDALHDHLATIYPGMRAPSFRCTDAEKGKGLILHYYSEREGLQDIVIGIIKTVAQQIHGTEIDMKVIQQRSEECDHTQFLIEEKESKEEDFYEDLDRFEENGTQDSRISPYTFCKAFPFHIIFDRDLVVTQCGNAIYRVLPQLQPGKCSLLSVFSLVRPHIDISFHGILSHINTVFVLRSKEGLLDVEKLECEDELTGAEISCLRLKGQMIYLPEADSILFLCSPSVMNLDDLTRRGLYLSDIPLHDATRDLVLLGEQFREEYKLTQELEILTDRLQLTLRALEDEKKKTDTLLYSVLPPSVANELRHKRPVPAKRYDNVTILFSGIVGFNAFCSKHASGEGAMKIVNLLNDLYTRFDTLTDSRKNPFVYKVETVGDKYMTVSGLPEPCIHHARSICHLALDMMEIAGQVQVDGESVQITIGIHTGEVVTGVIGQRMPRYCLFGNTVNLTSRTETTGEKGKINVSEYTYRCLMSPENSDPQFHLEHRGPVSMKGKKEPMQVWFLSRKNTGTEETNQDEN
# Sequence (P19686 whole entry partner): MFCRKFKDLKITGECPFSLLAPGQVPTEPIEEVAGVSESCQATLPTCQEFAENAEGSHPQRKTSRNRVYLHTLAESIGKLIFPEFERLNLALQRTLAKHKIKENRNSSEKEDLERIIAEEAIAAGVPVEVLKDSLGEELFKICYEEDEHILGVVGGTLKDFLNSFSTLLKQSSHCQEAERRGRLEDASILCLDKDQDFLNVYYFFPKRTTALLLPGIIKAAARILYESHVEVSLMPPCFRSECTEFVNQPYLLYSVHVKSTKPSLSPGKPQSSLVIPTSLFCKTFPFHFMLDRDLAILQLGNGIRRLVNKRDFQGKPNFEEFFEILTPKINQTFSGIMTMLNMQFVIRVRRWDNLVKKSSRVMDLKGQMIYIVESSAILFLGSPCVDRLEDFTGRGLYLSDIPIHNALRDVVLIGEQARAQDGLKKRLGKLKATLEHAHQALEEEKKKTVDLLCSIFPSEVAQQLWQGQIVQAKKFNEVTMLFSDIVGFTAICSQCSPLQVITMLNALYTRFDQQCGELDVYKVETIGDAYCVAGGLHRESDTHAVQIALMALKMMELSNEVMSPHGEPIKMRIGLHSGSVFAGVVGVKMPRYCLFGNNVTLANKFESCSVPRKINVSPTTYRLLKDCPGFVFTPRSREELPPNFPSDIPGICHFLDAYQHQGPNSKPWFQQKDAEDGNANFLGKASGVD
# Test Description: Stimulation of sGC enzyme activity (PPi detection, luciferase)
# Assay type: biochemical
# Measurement Context: sGC enzyme in vitro; read-out: EC50 (concentration at 50% of maximum efficacy), activating action at the sGC enzyme
Could you please mark Met for values of EC50 below 0.04 µM and Not met for values at or above it?

>  <Compound>
CC(C)c1ccc([C@@H](C(=O)Nc2cc(C(CC(=O)O)C(C)C)ccc2Cl)[C@@H](C)C(F)(F)F)cc1 (stereo partly drawn)

>  <Tgt>
soluble guanylate cyclase (sGC) (Rattus norvegicus (Rat), UniProt P20595)

>  <Cat>
Met

$$$$
>  <Compound>
CC(C)C(CC(=O)O)c1ccc(Cl)c(NC(=O)C(c2ccc(CC(F)(F)F)cc2)C(C)C(F)(F)F)c1 (stereo not drawn)

>  <Tgt>
soluble guanylate cyclase (sGC) (Rattus norvegicus (Rat), UniProt P20595)

>  <Cat>
Met

$$$$

Task item: A record lists C[C@H]([C@H](C(=O)Nc1cc(C(CC(=O)O)C2(F)CC2)ccc1Cl)c1ccc(Cl)cc1)C(F)(F)F (stereo partly drawn) . Is its EC50 below 0.04 µM?
Reply: Not met

Task item: A record lists CC(C)C(C)(CC(=O)O)c1ccc(Cl)c(NC(=O)[C@H](c2ccc(Cl)cc2)[C@@H](C)C(F)(F)F)c1 (single isomer, unassigned) [Example 4] . Is its EC50 below 0.04 µM?
Reply: Not met

Task item: A record lists CC(C)C(C)(CC(=O)O)c1ccc(Cl)c(NC(=O)[C@H](c2ccc(Cl)cc2)[C@@H](C)C(F)(F)F)c1 (single isomer, unassigned) [Example 3] . Is its EC50 below 0.04 µM?
Reply: Met

Task item: A record lists C[C@H]([C@H](C(=O)Nc1cc(C(CC(=O)O)CC2CC2)ccc1Cl)c1ccc(Cl)cc1)C(F)(F)F (single isomer, unassigned) . Is its EC50 below 0.04 µM?
Reply: Met
